# measured_on: phage displayed HA gene fragment P66-I282 (Influenza A virus A/California/07/2009 …, UniProt C3W5X2)
# experimental_protocol: ELISA
# experimental_context: both partners purified
observed_property: binding result

R2a-F9 (VHH, source: E. coli WK6 periplasm, purified (Talon IMAC, Superdex 75 SEC)) VHH: QVQLVESGGGLVQPGGSLRLSCSASGSISSIVTMGWYRQAPGKERELVAVIGNYGNTNYADSVKGRFTVSRDNAKNTVYLQMNSLNVEDTAMYVCKFSSTVAPHEYWGQGTQVTVSS = binds
R1a-F5 (VHH, source: E. coli WK6 periplasm, purified (Talon IMAC, Superdex 75 SEC)) VHH: QLQLVESGGGLVQVGGSLRLSCAASGFPFDGYAIAWFRQAPGKEREGVSCRASDGNTYYAESLKGRLTMSTDNAKNTVYLQMNSLKPEDTAVYYCAAASWVASLWSPSEYDYWGQGTQVTVSS = binds
R1a-A5 (VHH, also called R1a-A5 monovalent; source: E. coli WK6 periplasm, purified (Talon IMAC, Superdex 75 SEC)) VHH: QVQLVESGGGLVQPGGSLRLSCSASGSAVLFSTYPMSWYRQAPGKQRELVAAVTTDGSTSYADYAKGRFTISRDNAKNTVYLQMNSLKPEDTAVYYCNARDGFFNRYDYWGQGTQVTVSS = no binding
R1a-E6 (VHH, source: E. coli WK6 periplasm, purified (Talon IMAC, Superdex 75 SEC)) VHH: QVQLVESGGGLVQPGGSLRLSCAASGFTLGAYAIAWFRQAPGKEREGVSCISPSDSFTEYGDSVKGRFTVSRDNAKNTVYLQMNSLQPEDTAVYYCAADPVCTAGWYRPSRFDLWGQGTQVTVSS = binds

Query :: Return reported binding result; argument: R2b-D9 (VHH, source: E. coli WK6 periplasm, purified (Talon IMAC, Superdex 75 SEC)) VHH: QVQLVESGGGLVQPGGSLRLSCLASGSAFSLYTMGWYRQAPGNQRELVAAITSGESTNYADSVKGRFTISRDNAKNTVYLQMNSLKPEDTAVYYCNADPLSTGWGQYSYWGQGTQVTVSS
Result :: no binding

Query :: Return reported binding result; argument: R2a-E8 (VHH, source: E. coli WK6 periplasm, purified (Talon IMAC, Superdex 75 SEC)) VHH: QLQLVESGGGLVQPGGSLRLSCTASGDIFVMYMIDWYRQAPGKQRELVASIDGRGTPMYADSVKGRFTISRDNAKNTVYLQMNSLKPEDTAVYSCHAKSPLVDNEYWGQGTQVTVSS
Result :: no binding

Query :: Return reported binding result; argument: R1a-G6 (VHH, source: E. coli WK6 periplasm, purified (Talon IMAC, Superdex 75 SEC)) VHH: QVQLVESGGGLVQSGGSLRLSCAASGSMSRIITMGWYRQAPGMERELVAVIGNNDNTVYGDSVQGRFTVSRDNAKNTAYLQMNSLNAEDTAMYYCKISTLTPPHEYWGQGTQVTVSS
Result :: binds

Query :: Return reported binding result; argument: R1a-G5 (VHH, source: E. coli WK6 periplasm, purified (Talon IMAC, Superdex 75 SEC)) VHH: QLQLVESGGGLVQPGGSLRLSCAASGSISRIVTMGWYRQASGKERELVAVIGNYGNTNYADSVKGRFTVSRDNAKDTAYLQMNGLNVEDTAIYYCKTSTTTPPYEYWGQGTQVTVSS
Result :: binds
